Recorded values, source the supplement of paper PMC13380429.

Test system: Vero E6 infected with SARS-CoV-2
Assay: SARS-CoV-2 infection rate relative to infected DMSO; higher = more infection, active = 60 or less
Details: 24 h
REPORTED_PROPERTY: SARS-CoV-2 infection rate (%)

| MOLECULE | TARGET_ENTITY | REPORTED_PROPERTY | READOUT_UNIT | DATA_VALUE |
| --- | --- | --- | --- | --- |
| O=C(OCC(O)CO)c1ccccc1Nc1ccnc2c(C(F)(F)F)cccc12 (stereo not given) [floctafenine] (10 µM) | Vero E6 infected with SARS-CoV-2 | SARS-CoV-2 infection rate | % | 106 |
| CCN(CC)CCO[C@H]1CC[C@@]2(C)C(=CC[C@@H]3[C@@H]2CC[C@]2(C)C(=O)CC[C@@H]32)C1 (0.833333 µM) | Vero E6 infected with SARS-CoV-2 | SARS-CoV-2 infection rate | % | 84 |
| O[C@H]1[C@H]2[C@H](O)CCCN2C[C@H]1O [swainsonine] (10 µM) | Vero E6 infected with SARS-CoV-2 | SARS-CoV-2 infection rate | % | 97 |
| O=C[C@H](O)[C@@H](O)[C@H](O)CO [xylose] (10 µM) | Vero E6 infected with SARS-CoV-2 | SARS-CoV-2 infection rate | % | 108 |
| COc1cc(NS(C)(=O)=O)ccc1Nc1c2ccccc2nc2ccccc12 [amsacrine] (10 µM) | Vero E6 infected with SARS-CoV-2 | SARS-CoV-2 infection rate | % | 108 |
| CCC[C@H]1C(=O)N2C(N(C)C)=Nc3ccc(C)cc3N2C1=O [azapropazone] (10 µM) | Vero E6 infected with SARS-CoV-2 | SARS-CoV-2 infection rate | % | 94 |
| C=CCN1CC[C@]2(C)c3cc(O)ccc3C[C@H]1[C@H]2C (10 µM) | Vero E6 infected with SARS-CoV-2 | SARS-CoV-2 infection rate | % | 102 |
| CC(C)Cn1cnc2c1c(=O)n(C)c(=O)n2C [isbufylline] (10 µM) | Vero E6 infected with SARS-CoV-2 | SARS-CoV-2 infection rate | % | 106 |
| O=C(O)COC(=O)Cc1ccccc1Nc1c(Cl)cccc1Cl [aceclofenac] (10 µM) | Vero E6 infected with SARS-CoV-2 | SARS-CoV-2 infection rate | % | 110 |
| C=C[C@@H]1C[C@]1(NC(=O)[C@@H]1C[C@@H](Oc2ncc(OC)c3ccc(Cl)cc23)CN1C(=O)[C@@H](NC(=O)OC(C)(C)C)C(C)(C)C)C(=O)NS(=O)(=O)C1CC1 [asunaprevir] (10 µM) | Vero E6 infected with SARS-CoV-2 | SARS-CoV-2 infection rate | % | 85 |

====

Reported inhibition of SARS-CoV-2 cytopathic effect values for the following molecules.
Test system: Vero E6 infected with SARS-CoV-2
Assay: inhibition of SARS-CoV-2 cytopathic effect; higher = more antiviral protection, active = above 15
Conditions: 833.33 nM; 48 h
REPORTED_PROPERTY: inhibition of SARS-CoV-2 cytopathic effect (%)

| MOLECULE | TARGET_ENTITY | DATA_VALUE |
| --- | --- | --- |
| CN/C(=N\S(=O)(=O)c1ccc(Cl)cc1)N1C[C@H](c2ccccc2)C(c2ccc(Cl)cc2)=N1 (racemic) | Vero E6 infected with SARS-CoV-2 | 1.24 |
| Cc1ccc(NC(=O)c2cccc(N(C)C)c2)cc1NC(=O)c1ccc(O)cc1 | Vero E6 infected with SARS-CoV-2 | 1.14 |
| Cc1cc(C(=O)N2Cc3cnn(C)c3Nc3ccccc32)ccc1CNC(=O)N1CCC[C@H]1C(=S)N1CCCN(C)CC1 | Vero E6 infected with SARS-CoV-2 | -1.74 |

====

Reported inhibition of SARS-CoV-2 cytopathic effect values for the following compounds.
Tested on: Vero E6 infected with SARS-CoV-2
Assay: inhibition of SARS-CoV-2 cytopathic effect; higher = more antiviral protection, active = above 15
Settings: 1 nM; 48 h
REPORTED_PROPERTY: inhibition of SARS-CoV-2 cytopathic effect (%)

| COMPOUND | DATA_VALUE |
| --- | --- |
| N#C/C(=C1/SCC(c2ccccc2Cl)S1)n1ccnc1 (stereo not drawn) | 0.51 |
| Cc1ccc(Cl)c(OCC(O)CNC(C)(C)C)c1 (stereo not drawn) | 1.32 |
| Cc1cc(-c2cc(O)ccc2Cl)cc2nnc(Nc3ccc(OCCN4CCCC4)cc3)nc12 | -1.19 |
| CC(C)(N)CC12CC3CC(CC(C3)C1)C2 | -2.05 |
| CN1C2CCC1CC(OC(c1ccccc1)c1ccc(Cl)cc1)C2 (stereo not drawn) | 5.63 |
| c1cc(CN2CCCCC2)cc(OCCCNc2nc3ccccc3s2)c1 [zolantidine] | 0.78 |
| CC1C(=O)OC2C(O)C34C5CC(C(C)(C)C)C36C(OC(=O)C6O)OC4(C(=O)O5)C12O (stereo not drawn) [ginkgolide-B] | 1.36 |
| Cc1ccnc(NC(=O)C(C)c2cccc(C(=O)c3ccccc3)c2)c1 (stereo not drawn) | 0.01 |

====

Tested on: Vero E6 infected with SARS-CoV-2
Assay: morphology score (similarity to uninfected cells); higher = more like uninfected cells
Conditions: 24 h
Please enter Criterion met where morphology score is greater than or equal to 0.1, and Criterion not met where it is lower.

| MOLECULE | CLASS_LABEL |
| --- | --- |
| CN1CCC(c2c[nH]c3ccc(O)cc23)CC1 (10 µM) | Criterion met |
| NCCCCN [putrescine] (10 µM) | Criterion not met |
| COC(=O)Nc1ccc(-c2nc(N3CCOCC3)c3cnn(C4CCN(Cc5cccnc5)CC4)c3n2)cc1 (10 µM) | Criterion not met |
| C=CCN1CC[C@]2(C)c3cc(O)ccc3C[C@H]1[C@H]2C (10 µM) | Criterion met |
| CN[C@@H]1[C@H](O[C@H]2[C@H](O[C@H]3[C@H](O)[C@@H](O)[C@H](NC(=N)N)[C@@H](O)[C@@H]3NC(=N)N)O[C@@H](C)[C@]2(O)CO)O[C@@H](CO)[C@H](O)[C@H]1O [dihydrostreptomycin] (10 µM) | Criterion not met |
| CCCCCCCCCCC(O)C1C=CC2C(=O)N(c3ccccc3)C(=O)C2N1Nc1ccc([N+](=O)[O-])cc1 (stereo not drawn) (10 µM) | Criterion met |

====

System: Vero E6 infected with SARS-CoV-2
Experiment: inhibition of SARS-CoV-2 cytopathic effect; higher = more antiviral protection, active = above 15
Conditions: 1 nM; 48 h
Reported inhibition of SARS-CoV-2 cytopathic effect values for the following molecules.
REPORTED_PROPERTY: inhibition of SARS-CoV-2 cytopathic effect (%)

| MOLECULE | DATA_VALUE |
| --- | --- |
| C[C@H](Nc1cc(NS(=O)(=O)N2CCC2)nc(SCc2cccc(F)c2F)n1)[C@@H](O)CO | 3.09 |
| C[C@@H](CN(C)C)CN1c2ccccc2Sc2ccccc21 (racemic) | -2.63 |
| Cc1nc2c(OCc3ccccc3)cccn2c1CC#N | -1.06 |
| COc1ccc2c(OCc3nnc4ccc(-c5ccccc5)nn34)ccnc2c1 | 1.19 |
| Cc1nc(N)sc1CCN | -1.84 |
| CC(C)C(N)=O [isobutyramide] | 4.35 |
| NC(=O)C1=CN([C@@H]2O[C@H](COP(=O)(O)OP(=O)(O)OC[C@H]3O[C@@H](n4cnc5c(N)ncnc54)[C@H](O)[C@@H]3O)[C@@H](O)[C@H]2O)C=CC1 | -3.2 |
| CCCC[C@@H](C=O)NC(=O)[C@H](CC(C)C)NC(=O)OCc1ccccc1 | -1.61 |
| FC(F)(F)c1cc(NC(=S)Nc2ccc(Br)cc2-c2nnn[nH]2)cc(C(F)(F)F)c1 | -3.42 |
| CCCCCCCC(=O)N[C@H](CN1CCCC1)[C@H](O)c1ccc2c(c1)OCCO2 | 3.28 |
| CCOC(=O)NNc1ccc(N(CC)CC(C)O)nn1 (configuration not stated) | -0.85 |
| COc1cc2c(cc1-c1c(C)noc1C)ncc1[nH]c(=O)n([C@H](C)c3ccccn3)c12 | -7.87 |
| O=C(NO)c1ccc2[nH]c(=O)c(CCCc3ccccc3)nc2c1 | 1.82 |
| COc1cccc(OCCCN)c1-c1cc(Nc2cnc(C#N)cn2)n[nH]1 | -0.1 |
| C[C@]12C=CC(=O)N[C@@H]1CC[C@@H]1[C@@H]2CC[C@]2(C)[C@@H](C(=O)Nc3cc(C(F)(F)F)ccc3C(F)(F)F)CC[C@@H]12 [dutasteride] | -4.2 |
| C[S+](CC[C@H](N)C(=O)O)C[C@H]1O[C@@H](n2cnc3c(N)ncnc32)[C@H](O)[C@@H]1O (some centres not stated) | -2.98 |
| CCOCCn1c(N2CCCN(C)CC2)nc2ccccc21 | -2.21 |
